Each record here notes measured KO/WT.
# Tested on: MCF7 CARM1 KO cells
# Method: Quantitative MS of ADMA-containing peptides in MCF7 CARM1 KO cells expressing CARM1 28-608 or CARM1 140-608, and in CARM1 KO
# Format: cell-based, human
# Condition details: KO vs WT, mean of 3 replicates, log2
Readout: KO/WT

>>> measured_result("AGSQGGrGGGAQAAAR")
0.7684
>>> measured_result("SPYTTTrYGSPINTFTVRPGTR")
-2.259
>>> measured_result("LPGTPPLFSPPPrHHLDPHR")
-1.196
>>> measured_result("SYGLGSEQrSQAPArYSLQSANASSLSSGQLK")
-5.372
>>> measured_result("SQAPArYSLQSANASSLSSGQLK")
-4.438
>>> measured_result("NRPAIArGAAGGGGR")
0.534
>>> measured_result("KDLYANTVLSGGSTMYPGIADr")
-0.3193
>>> measured_result("NrGAGGFGGGGGTR")
0.4755
>>> measured_result("STrGGHMNSGGHAK")
0.07617
>>> measured_result("FCAFGGNPPVTGPrSALAPNLLTSGK")
-5.047
>>> measured_result("VLGIIPSSTGTSQQTFTSFQPrTATVTIrPNTSGSGGTTSNSQVITGPQIrPGMTVIrTPLQQSTLGK")
-6.437
>>> measured_result("VREELLrHQLLEK")
-4.282
>>> measured_result("SPYTTTrYGSPINTFTVrPGTR")
-5.424
>>> measured_result("TATVTIrPNTSGSGGTTSNSQVITGPQIrPGMTVIrTPLQQSTLGK")
-1.958
>>> measured_result("TSSGLFPrIPLQPQAPVSSIGSPVGTPK")
-2.603
>>> measured_result("ErLALAAGPALrPDMSYAER")
-2.368
>>> measured_result("AVDLTKPYQNQQLSIrVPLR")
-4.115
>>> measured_result("DFAFYNPrLQGK")
-2.382
>>> measured_result("APPGGLHAPrLSLEGAArGAAEAK")
-2.606
>>> measured_result("EELLrHQLLEK")
-5.464
>>> measured_result("LEPPLTPrCPLDFAPQTLSFPYAR")
-5.801
>>> measured_result("QVHPFHVYPQPGMQrFR")
-0.1867
>>> measured_result("RPAQSVNrGGMTR")
0.3659
>>> measured_result("INPLPGGrNFSGTASTSLLGPPPGLLTPPVATELSQNAR")
-2.627
>>> measured_result("FPAGArYAGAGGLER")
-1.235
>>> measured_result("GArGLMNGYR")
0.02481

---

# System: MCF7 CARM1 KO cells
# Method: Quantitative MS of ADMA-containing peptides in MCF7 CARM1 KO cells expressing CARM1 28-608 or CARM1 140-608, and in CARM1 KO
# Assay type: cell-based, human
# Condition details: CARM1 140-608 vs WT, mean of 3 replicates (log2 scale)
Each record here notes measured CARM1 140-608/WT.
Readout: CARM1 140-608/WT

>>> measured_result("MGTPVPRPPQDMGQIGVrTPLGPrVAAPVGPVGPTPTVLPMGAPVPrPR")
-2.519
>>> measured_result("ErLALAGPQLrPEMSYPDR")
-2.2623
>>> measured_result("TPASTWASPrPLLNWSR")
-2.026
>>> measured_result("MGTPVPRPPQDMGQIGVrTPLGPrVAAPVGPVGPTPTVLPMGAPVPrPrGPPPPPGDENR")
-2.604
>>> measured_result("LIAAAQSGLPVrIESIK")
-0.3613
>>> measured_result("MGTPVPRPPQDMGQIGVrTPLGPrVAAPVGPVGPTPTVLPMGAPVPRPrGPPPPPGDENR")
-2.483
>>> measured_result("MPTMPMLDIrPGLIPQAPGPrFPLIQPGIPPQR")
0.8902
>>> measured_result("FrLSLFSDLPEDTELQR")
-2.025
>>> measured_result("APrSLIPPIPVSPPILAPrLSSGALK")
-0.773
>>> measured_result("IAQPVrSFLQPPKPLSSLSTLR")
-1.679
>>> measured_result("SVVESSAPGANNLQVNALVArLPLLLPR")
-0.343
>>> measured_result("MGTPVPrPPQDMGQIGVrTPLGPRVAAPVGPVGPTPTVLPMGAPVPrPR")
-2.791
>>> measured_result("GGrGrGSLNHMVVDHRPK")
0.3773
>>> measured_result("AGIGVYWGPGHPLNVGIrLPGR")
-0.6349
>>> measured_result("SPGVFRPEQDPVPrMPFEK")
-0.5664
>>> measured_result("MGTPVPrPPQDMGQIGVRTPLGPrVAAPVGPVGPTPTVLPMGAPVPrPR")
-3.81
>>> measured_result("MGLLSPSGIGGVSPrHALTSPSLGGQGR")
-0.809

---

# System: MCF7 cells
# Method: Quantitative nanoLC-MS/MS (TMT) of ADMA-containing peptides, CARM1 KO vs parental
# Assay type: cell-based, human
# Set-up: scale not given here
# Condition details: ADMA-containing peptide, MCF7, CARM1 knockout (KO1-3) vs wild type (WT1-3), TMT 6-plex experiment #1
Each record here notes measured Fold change KO/WT.
Readout: Fold change KO/WT

>>> measured_result("TPTATTSGIrATLTPTVLAPrLPQPPQNPTNIQNFQLPPGMVLVR")
-3.04
>>> measured_result("VQTHLENPTrYHLQQAR")
-1.173
>>> measured_result("LGHDAYrLGQDPYrLGHDPYR")
-1.784
>>> measured_result("LFHLPEYTWrLPCGGVR")
-2.1298
>>> measured_result("ANYNFrGMYNQrYHCPVPK")
-3.002
>>> measured_result("EPLVATNLPGrGQLQK")
-0.7768
>>> measured_result("QrGVSHAMGGrGGINrGNIN")
0.1671
>>> measured_result("GMYNQrYHCPVPK")
-2.857

---

# System: MCF7 cells
# Method: Quantitative nanoLC-MS/MS (TMT) of ADMA-containing peptides, CARM1 KO vs parental
# Type: cell-based, human
# Design: scale not given here
# Condition details: MCF7, CARM1 knockout vs wild type, n = 3 each
Readout: Fold change KO/WT

>>> measured_result("GPSGGYrGSGGFQrGGGrGAYGTGYFGQGR")
0.2112
>>> measured_result("FGGPVHHQAQrFR")
-0.6051
>>> measured_result("SPLLNQPVPELSHASLIANQSPFrAPLNVTNTAGTSLPSVDLLQK")
-2.328
>>> measured_result("CAGFLEPTWLAAPPrLARPPR")
-1.902
>>> measured_result("SGFAATSQPGPrLPFIQHSQNPR")
-1.049
>>> measured_result("QPVPFGLVrFGVAPDHPEVK")
-1.677
>>> measured_result("CAGFLEPTWLAAPPRLArPPR")
-1.124
>>> measured_result("QQQQQQQQQQQQLDLLFHQrIQISLWPR")
-2.494
>>> measured_result("KPLGTAPHCPrLPLRK")
-4.08
